TGI overview
Tested on: HT29 colon
Assay: NCI tumour cell line growth inhibition, 48 h

The cases that follow already have their TGI on record.
                                   compound  test_value
0   Cc1cccc(-c2cc(=O)c3c(C)cc(C)nc3[nH]2)c1     19.1 µM
1  COc1cc2c(cc1OC)C(=O)/C(=C/c1cc(OC)c(OC)c(OC)c1)C2    > 100 µM
2  CC(=O)NC(Cc1ccsc1)C(=O)O (stereo unspecified)    > 100 µM
3  CCOC(=O)C(C(=S)SC)c1nn2c(=O)cc(C)nc2s1 (stereo unspecified)     36.9 µM
4      Cc1ccc(NC(=O)/C(Cl)=C(/Cl)C(=O)O)cc1       35 µM
5  O=C(NCCNCCCNC(=O)c1cc(-c2ccccc2)nc2ccccc12)c1cccc(OCc2ccccc2)c1OCc1ccccc1     2.98 µM

Provide TGI value for the following compound: "O=c1cn[nH]c(=S)n1/N=C/c1c[nH]c2ccccc12"
> 100 µM

Provide TGI value for the following compound: COc1ccc(C2C(C)C(=O)C(C)C(c3ccc(OC)cc3)N2N=O)cc1 (stereo unspecified)
> 1000 µM

Provide TGI value for the following compound: "Cn1c(=O)c(Oc2ccc(F)cc2F)cc2cnc(NC3CCS(=O)(=O)CC3)nc21"
> 25 µM

Provide TGI value for the following compound: "FC(F)(Sc1ncc[nH]1)c1nc2ccccc2o1"
> 100 µM

Provide TGI value for the following compound: "CCOC(=O)c1c2c(c(O)c3ccccc3c(O)n(Cc3ccccc3)c1C)C(=O)C=CC2=O"
> 100 µM

###

TGI overview
System: HT29 colon
Assay: NCI tumour cell line growth inhibition, 48 h

MOLECULE	TGI
COc1cc(-c2cc(-c3cc(OC)c(OC)c(OC)c3)nc3nc(N)[nH]c(=O)c23)ccc1Oc1ccnc2cc(Cl)ccc12	25.4 µM

Provide TGI value for the following molecule: O=S(=O)(/N=c1/scc(-c2ccccc2)n1-c1ccccc1)c1ccc(N2N=C3c4ccccc4CC3C2c2cccs2)cc1 (stereo not given)
> 100 µM

Provide TGI value for the following molecule: "O=C1CC(=O)NC(=NNS(=O)(=O)c2ccccc2)N1"
> 100 µM

Provide TGI value for the following molecule: "O=C1C=CC(=O)c2c1ccc1c3ccccc3n(-c3ccccc3[N+](=O)[O-])c21"
> 74.1 µM

###

System: SF-268 CNS
Test: NCI tumour cell line growth inhibition, 48 h; in the data active = GI50 below about 0.43 µM; inactive = the rest
Select the matching outcome among 1.0 (active), 0.0 (inactive)

COMPOUND	QUALITATIVE_LABEL
CN(C)c1ccc(/C=C/C2=[N+](C)c3ccccc3C2(C)C)cc1	0.0
CC(=O)OC1CC2C3CCC4C[C@@H](NC(=O)C=C(C)C)CC[C@]4(C)C3CC[C@]2(C)[C@H]1C(C)N(C)C (stereo partly drawn)	0.0
CCN1Cc2nc3sc(C)c(C)c3c(=O)n2C=C1C	0.0
COc1cc([C@@H]2C[C@H]2c2cc(SC)n[nH]2)cc(OC)c1OC	0.0
COC1=CC(c2ccc[nH]2)=N/C1=C\c1[nH]c(C)c(C(=O)CCCCC(=O)Oc2ccc3c(c2)CCC2C3CC[C@]3(C)[C@@H](O)CC[C@@H]23)c1C (stereo partly drawn)	0.0
COc1cc2c(cc1Nc1nc(Nc3cccc(F)c3C(N)=O)c3cc[nH]c3n1)N(C(=O)CN1CCN(C(C)C)CC1)CC2	0.0

Dear colleague, could you share the recorded outcome for "CC(=O)c1cc(C(=O)c2ccc3c(c2)Sc2ccccc2N3)c2cc(C)ccn12" when you have a moment?
1.0

Dear colleague, could you share the recorded outcome for "CC1(C)[C@@H](OC(=O)CCC(=O)O)CC[C@]2(C)[C@H]3C(=O)C=C4[C@@H]5C[C@@](C)(C(=O)O)CC[C@]5(C)CC[C@@]4(C)[C@]3(C)CC[C@@H]12" when you have a moment?
0.0

###

TGI overview
Test system: HOP-62 NSCLC
Experiment: NCI tumour cell line growth inhibition, 48 h

The cases that follow already have their TGI on record.
COMPOUND	TGI
COC(=O)CCC(C)C1CCC2C3C(C[C@H](OC(C)=O)[C@]12C)[C@@]1(C)CCC2(C[C@H]1C[C@H]3OC(C)=O)OOC1(CC[C@]3(C)C4C[C@H](OC(C)=O)[C@]5(C)C(C(C)CCC(=O)OC)CCC5C4[C@H](OC(C)=O)C[C@@H]3C1)OO2 (stereo partly specified)	> 100 µM
COc1cc2c(cc1OC)C(=O)/C(=C/c1cc(OC)c(OC)c(OC)c1)C2	> 100 µM

Provide TGI value for the following compound: "O=C1c2cc([N+](=O)[O-])ccc2-c2ccc3c4ccc5c6c(ccc(c7ccc1c2c73)c64)C(=O)c1cc([N+](=O)[O-])ccc1-5"
> 100 µM

###

System: HL-60(TB) leukemia
Assay: NCI tumour cell line growth inhibition, 48 h
METRIC: TGI (µM)
Please state the figure in µM; there is no need to write the unit.

>>> print(df.to_string())
                                        smi  test_value
0  COc1ccc(/C=C2\C=C(c3ccccc3)N(CCc3ccccc3)C2=O)cc1OC        68.6
1  CN(Cc1cc(Cl)cc(Cl)c1O)Cc1c(O)ccc2ccccc12        57.4

Give measured TGI for "Cc1ccccc1-n1c2nc(=O)n(C)c(=O)c-2nc2ccccc21" (HL-60(TB) leukemia).
35.8

###

System: HCT-116 colon
Assay: NCI tumour cell line growth inhibition, 48 h
TGI overview

COMPOUND	TGI
NNC(=O)N/N=C1\C(=O)N(c2ccc(Cl)c(Cl)c2)C(=O)C(=O)C1c1nc2ccccc2s1 (stereo not drawn)	> 100 µM
COc1cc([C@@H]2c3cc4c(cc3[C@@H](Nc3ccc(C(=O)N[C@H]5CCc6cc(OC)c(OC)c(OC)c6-c6ccc(SC)c(=O)cc65)cc3)[C@H]3COC(=O)[C@H]23)OCO4)cc(OC)c1O	> 100 µM
COc1ccc(/C=C/C(=O)c2ccc(OC)c(OC)c2)cc1O	12.8 µM
CC1(C)[C@@H](OC(=O)CCC(=O)O)CC[C@]2(C)[C@H]3C(=O)C=C4[C@@H]5C[C@@](C)(C(=O)O)CC[C@]5(C)CC[C@@]4(C)[C@]3(C)CC[C@@H]12	75.6 µM
CN(Cc1cc(Cl)cc(Cl)c1O)Cc1c(O)ccc2ccccc12	58.7 µM

Provide TGI value for the following compound: "O=C(Nc1ccccc1)c1cc(S(=O)(=O)Nc2nc3ccccc3o2)c(SCc2ccccc2)cc1Cl"
66.1 µM

Provide TGI value for the following compound: CCCCCCCCC(=O)OCC(CS[As](C)C)OC(=O)CCCCCCCC (stereo not drawn)
11.3 µM

###

Test system: SR leukemia
Assay: NCI tumour cell line growth inhibition, 48 h
METRIC: TGI (µM)
Please state the figure in µM; there is no need to write the unit.

COMPOUND	TEST_VALUE
CC(=O)N1N=C2/C(=C/c3ccc(Cl)cc3)CC(C)CC2C1c1ccc(Cl)cc1 (stereo not drawn)	53.8
Cc1cccc(-c2cc(=O)c3c(C)cc(C)nc3[nH]2)c1	9.3
COc1cccc(NC(=O)C(=O)C(C(=O)c2ccccc2F)C2OC(=O)c3ccccc32)c1 (stereo not drawn)	48.5
COC(=O)/C=C/C1(O)C=CC(=O)C=C1	10.7
CSc1ccc(/C=C2\N=C(c3ccccc3)N(c3nc4cc(C)c(C)cc4s3)C2=O)cc1	54.2

Read the next record carefully.
Give measured TGI for COC1OC(COC(=O)c2cc(O)c(O)c(O)c2)C(OC(=O)c2cc(O)c(O)c(O)c2)C(OC(=O)c2cc(O)c(O)c(O)c2)C1OC(=O)c1cc(O)c(O)c(O)c1 (stereo not drawn) (SR leukemia).
36

###

Tested on: NCI-H226 lung
Assay: NCI tumour cell line growth inhibition, 48 h
Where a SMILES comes first, the peptide text is derived from it. The star is where a group is joined. Fmoc = O=C(OCC1c2ccccc2-c2ccccc21)*; Boc = CC(C)(C)OC(=O)*
TGI overview

The cases that follow already have their TGI on record.
COMPOUND	TEST_VALUE
O=C1CC(=O)NC(=NNS(=O)(=O)c2ccccc2)N1	> 100 µM
CC(C)(C)OC(=O)NCCCCC(NC(=O)C(Cc1c[nH]c2ccccc12)NC(=O)OCC1c2ccccc2-c2ccccc21)C(=O)N1CCCC1C(=O)NCC(N)=O (stereo not drawn) (Fmoc-WK(Boc)PG-NH2; configuration not given here)	> 100 µM
COc1cccc(N(CN2C(=O)CCC2C(=O)O)C(C)=O)c1 (stereo not drawn)	> 100 µM
CN(c1cn(C2CC[C@@H](CO)O2)c(=O)[nH]c1=O)C1CCCCC1 (stereo partly drawn)	> 100 µM
Cc1c2ccncc2c(C)c2c1[nH]c1ccc(OCC(F)(F)F)cc12	3.24 µM

Provide TGI value for the following compound: COc1ccc(C2=NN(C(=O)c3cc(OC)c(OC)c(OC)c3)C(c3ccc(N(C)C)cc3)C2)cc1 (stereo not drawn)
> 100 µM

Provide TGI value for the following compound: CC(=O)OC12c3ccccc3-c3ccccc3C1C1C(=O)OC(=O)C12 (stereo not drawn)
> 10 µM

Provide TGI value for the following compound: "CN(Cc1cc(Cl)cc(Cl)c1O)Cc1c(O)ccc2ccccc12"
37.7 µM

Provide TGI value for the following compound: CC(=O)[CH-]C(=O)c1ccccc1.CC(=O)[CH-]C(=O)c1ccccc1.C[C@]12CCC(=O)C=C1CC[C@@H]1C2CC[C@@]2(C)C1CC[C@@H]2[O-].C[C@]12CCC(=O)C=C1CC[C@@H]1C2CC[C@@]2(C)C1CC[C@@H]2[O-].Cl.[Ti+4] (stereo partly drawn)
35.2 µM

Provide TGI value for the following compound: "COc1cc2c(cc1Nc1nc(Nc3cccc(F)c3C(N)=O)c3cc[nH]c3n1)N(C(=O)CN1CCN(C(C)C)CC1)CC2"
7.01 µM

Provide TGI value for the following compound: CC(=O)C1=C(C)N(c2ccc(C)cc2)C2(O)C3=C(C(=O)c4ccccc4C3=O)C(O)=CC12Cl (stereo not drawn)
> 100 µM
